Origin of values: PubChem BioAssay (NCI)

assay: NCI Yeast Anticancer Drug Screen. Data for the cln2 rad14 strain (AID 165);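 note: 0% = growth equal to vehicle treated cultures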; conditions: S. cerevisiae cln2 rad14 strain, at 50.0 µM (retest, dose inferred, filed as 5.0)
This is part of a sample that, as a whole, favours compounds with a hit. Of some 79,000 tested, about 15% had one in any assay. Calls of active or inactive are those of the source. Cut-off read from the data, not from the text of the source: active = growth inhibition above about 70%; inactive = the rest.
Response enum: 1 (yes) (active), 0 (no) (inactive)

Reference set, count: 5
Recorded test call requested for O=c1[nH]c(=O)c2n[nH]nc2[nH]1
0 (no)

Recorded test call requested for CCC(C)(C)c1ccc(OC(=O)C(C)OC(C)=O)cc1 (stereo unspecified)
0 (no)

Recorded test call requested for Cn1c(=O)c2c(ncn2-c2ccncc2)n(C)c1=O
0 (no)

Recorded test call requested for CS/C(C#N)=C(\C#N)SC
0 (no)

Recorded test call requested for COC(=O)C(CBr)CBr
1 (yes)

---
Recorded test call requested for Nc1ncnc2nc[nH]c12.[Ag]
1 (yes)

Recorded test call requested for CC1(C)N([O-])[N+](=O)C1(Br)c1ccccc1 (stereo unspecified)
0 (no)

Recorded test call requested for OCCSC(=S)Nc1ccc(Cl)c(Cl)c1
1 (yes)

Recorded test call requested for COc1ccc(C(=O)CCc2c[nH]c3ccccc23)c(O)c1
1 (yes)

Recorded test call requested for CC(=O)OC1=Cc2ccccc2C(c2ccccc2)c2ccccc21 (stereo unspecified)
0 (no)

Recorded test call requested for COc1cccc2c1C(=O)c1c(O)c3c(c(O)c1C2=O)C[C@@](O)(C(C)=O)C[C@@H]3OC1CC(N(CCO)Cc2ccccc2)C(O)C(C)O1 (stereo partly specified)
1 (yes)

Recorded test call requested for Cc1ccnc(NS(=O)(=O)c2ccc(N=Cc3c4ccccc4nc4cc(Cl)ccc34)cc2)n1
0 (no)

Recorded test call requested for Cc1ccc(C2CC(c3cccc([N+](=O)[O-])c3)=Nc3ccccc3S2)cc1 (stereo unspecified)
0 (no)

Recorded test call requested for O=c1cccccc1O.O=c1cccccc1O.O=c1cccccc1O.[Ru]
0 (no)

Recorded test call requested for Cn1c2nc(-[n+]3ccc4ccccc4c3)nc-2c([O-])n(C)c1=O
1 (yes)

Recorded test call requested for CCCCC#CC(=O)OCCCCC
0 (no)

Recorded test call requested for OC(CCN1CCOCC1)c1ccc(Sc2ccccc2)cc1 (stereo unspecified)
0 (no)

Recorded test call requested for O=C(c1ccccc1)c1ccc(O)cc1O
0 (no)

Recorded test call requested for Cc1cc(NCCCCCCCCCC[n+]2c(C)cc(N)c3ccccc32)c2ccccc2n1
1 (yes)

Recorded test call requested for O=C1NC(=Nc2ccccc2)C(=Nc2ccccc2)N1c1ccccc1
1 (yes)

Recorded test call requested for Cc1nc(N)sc1N=Nc1ccc(Cl)cc1
0 (no)

====

test: NCI Yeast Anticancer Drug Screen. Data for the sgs1 mgt1 strain (AID 161);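 note: 0% = growth of cultures given vehicle only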; conditions: S. cerevisiae sgs1 mgt1 strain, at 50.0 µM (retest, dose inferred, filed as 5.0), active compounds read high
This is part of a sample that, as a whole, favours compounds with a hit. Of some 79,000 tested, about 15% had one in any assay.
parameterMeasured: growth inhibition (%)
Respond with the bare value in %.

# example entries with known answers
Can you look up the measured growth inhibition of Cc1nn(C(=S)S)c(C)c1N=Nc1ccc(Br)cc1 for me?
99

Can you look up the measured growth inhibition of COc1ccc(Cc2c3ccccc3cc[n+]2C)cc1Oc1ccc(Cc2c3ccccc3cc[n+]2C)cc1 for me?
93

Can you look up the measured growth inhibition of O=C1c2ccccc2C2(O)c3cc4ccccc4cc3OC12O (stereo not given) for me?
6

Can you look up the measured growth inhibition of COc1cccc2c1S(=O)(=O)C(c1ccccc1)=CC2=O for me?
99

Can you look up the measured growth inhibition of O=C1OC(c2ccccc2)(c2ccc(-c3ccccc3O)cc2)c2ccccc21 (stereo not given) for me?
93

Can you look up the measured growth inhibition of O=C(Nc1ccccc1O)/C(Cl)=C/Cl for me?
96

Can you look up the measured growth inhibition of CCOCCNCc1ccc(Cl)c(Cl)c1 for me?
-90

Can you look up the measured growth inhibition of O=C1C(=O)C(Cl)=C(Cl)C(Cl)=C1Cl for me?
95

---
Can you look up the measured growth inhibition of O[Si](O)(c1ccccc1)c1ccccc1 for me?
92

Can you look up the measured growth inhibition of COC(OC)(c1ccccc1)C(Br)Br for me?
45

Can you look up the measured growth inhibition of O=c1[nH]n(CCc2ccccn2)c(=O)c(Cl)c1Cl for me?
-26

Can you look up the measured growth inhibition of CN(Cc1ccccc1)C(c1ccccc1)C(O)C(O)(c1ccccc1)c1ccccc1 (stereo not given) for me?
70

Can you look up the measured growth inhibition of COc1ccc(/C=C2\NC(=O)NC2=O)cc1 for me?
3

====

assay: NCI Yeast Anticancer Drug Screen. Data for the sgs1 mgt1 strain (AID 161);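 note: 0% = growth of cultures given vehicle only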; details: S. cerevisiae sgs1 mgt1 strain, at 50.0 µM (retest, dose inferred, filed as 5.0), active compounds read high
About 79,000 compounds went through this panel and 15% of them were active in at least one assay; those are over-represented in the sample as a whole.
parameterMeasured: growth inhibition (%)
Respond with the bare value in %.

# example entries with known answers
Can you look up the measured growth inhibition of CC1=CC(O)(c2ccc(-c3ccccc3Cl)cc2)OC1=O (configuration not stated) for me?
88

Can you look up the measured growth inhibition of CC(O)C(O)C(O)C(O)C(O)C(=O)O (configuration not stated) for me?
-2

---
Can you look up the measured growth inhibition of CC(C)CC(NC(=O)SCc1ccccc1)C(=O)O (configuration not stated) for me?
-1

Can you look up the measured growth inhibition of O=CC(O)CN1CCCC1 (configuration not stated) for me?
8

Can you look up the measured growth inhibition of COc1ccc(C(c2ccc(OC)c(OC)c2)C(Cl)(Cl)Cl)cc1OC for me?
95

Can you look up the measured growth inhibition of O=C(CCc1c[nH]c2ccccc12)c1ccccc1O for me?
16

Can you look up the measured growth inhibition of CCCCCCCCCCCCCCCBr for me?
6

====

test: NCI Yeast Anticancer Drug Screen. Data for the bub3 strain (AID 167); details: S. cerevisiae bub3 mutant strain, at 50.0 µM
The panel holds about 79,000 compounds, 15% with a hit somewhere; the sample as a whole holds those more often. Calls of active or inactive are those of the source. Rule as the data show it: active = growth inhibition above about 70%; inactive = the rest.
Response enum: 1 for active, 0 for inactive

Reference set, count: 6
Recorded test call requested for O=C(O)C(Cc1ccccc1)N=Cc1ccc(O)cc1 (stereo not drawn)
0

Recorded test call requested for Cc1ccccc1CN(C)CCO
0

Recorded test call requested for COC(=O)c1c2oc3c(C(=O)OC)cccc3nc-2cc(N)c1=O
0

Recorded test call requested for COc1ccc(C2c3cc4c(cc3OC(C)(O)C2C)OCO4)cc1 (stereo not drawn)
1

Recorded test call requested for CC(C)=CCC(OC(=O)CC(C)C)C1=CC(=O)c2c(O)ccc(O)c2C1=O (stereo not drawn)
1

Recorded test call requested for NC(=O)C1C(=O)c2cccc3c2C1(Br)C(Br)CCC3 (stereo not drawn)
1

# input for lookup
Recorded test call requested for Cn1c2nc(-[n+]3ccc4ccccc4c3)nc-2c([O-])n(C)c1=O
0

====

experiment: NCI Yeast Anticancer Drug Screen. Data for the mec2-1 strain (AID 157); conditions: S. cerevisiae mec2-1 strain, at 5.0 µM (retest, dose inferred, filed as 0.5)
This is part of a sample that, as a whole, favours compounds with a hit. Of some 79,000 tested, about 15% had one in any assay. Calls of active or inactive are those of the source. Cut-off read from the data, not from the text of the source: active = growth inhibition above about 70%; inactive = the rest.
Response enum: 1 (yes) = active, 0 (no) = inactive

Reference set, count: 5
Recorded test call requested for CCCCCCCCCCCCCC1=NCC(C)(C)N1
1 (yes)

Recorded test call requested for O=C(O)Cc1ccc2c3c(cccc13)CC2
0 (no)

Recorded test call requested for CCCCCCCCCCCCCCC(C(=O)O)S(=O)(=O)O (centres undefined)
0 (no)

Recorded test call requested for O=C(NNc1nc(-c2ccccc2)cs1)C(F)(F)F
1 (yes)

Recorded test call requested for COc1ccc(C2N(Cc3ccc(Cl)cc3)CCN2Cc2ccc(Cl)cc2)cc1
0 (no)

---
Recorded test call requested for CC(=O)Oc1ccc(/C=C/c2ccncc2)cc1
0 (no)

Recorded test call requested for Oc1cccc(Oc2cccc(Oc3ccccc3)c2)c1
0 (no)

Recorded test call requested for N#Cc1ccc([N+](=O)[O-])cc1C#N
0 (no)

====

experiment: NCI Yeast Anticancer Drug Screen. Data for the rad50 strain (AID 155);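 note: 0% = growth of vehicle-only cultures of the same strain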; settings: S. cerevisiae rad50 strain growth inhibition; at 5.0 µM (retest, dose inferred, filed as 0.5)
Compounds without any hit were thinned out: in the full panel of roughly 79,000, 15% have a hit. Active and inactive are the calls of the source. Rule as the data show it: active = growth inhibition above about 70%; inactive = the rest.
Response enum: Y = active, N = inactive

Recorded test call requested for O=C1CSC(=S)N1c1ccc(I)cc1
N

Recorded test call requested for COc1ccc(-c2nc(N)n(C)c2SSc2c(-c3ccc(OC)cc3)nc(N)n2C)cc1
N

Recorded test call requested for CC1=NC(C)C(C)S1 (configuration not stated)
N

Recorded test call requested for O=[N+]([O-])c1ccc(S(=O)(=O)N/N=C/C=C/c2ccccc2)cc1
N

Recorded test call requested for O=Cc1cc(-c2ccccc2)n(-c2ccccc2)c1-c1ccccc1
N

Recorded test call requested for CSc1cc(-c2cc3ccccc3o2)oc(=O)c1C#N
N

Recorded test call requested for C[N+]1(Cc2ccc([N+](=O)[O-])cc2)CCC[C@H]1c1ccc[n+](Cc2ccc([N+](=O)[O-])cc2)c1 (some centres not stated)
N

Recorded test call requested for C#CC(CC(C)C)(CC(C)C)OC(=O)Nc1ccccc1
N

---
Recorded test call requested for O=C(O)c1cccc(N=Nc2c(S(=O)(=O)O)ccc3c2C(=O)c2ccccc2C3=O)c1O
N

Recorded test call requested for COc1ccccc1/C=C1\Sc2scc(-c3ccc(O)c(O)c3)[n+]2C1=O
N

Recorded test call requested for Cc1ccc(C(=O)/C(Cl)=N/O)cc1
N

Recorded test call requested for O=C1CCC(Cc2ccccc2Br)C(=O)N1 (configuration not stated)
N

Recorded test call requested for C(=NCCc1ccccc1)c1ccccc1B1OB(c2ccccc2C=NCCc2ccccc2)OB(c2ccccc2C=NCCc2ccccc2)O1
Y

Recorded test call requested for CCCC(=O)OCc1cc(=O)n(C)c2c3c4c(cc12)c(C)cc(=O)n4CO3
Y

Recorded test call requested for CCSC(=S)NC(=O)c1ccccc1
N

Recorded test call requested for O=C(c1ccccc1)c1ccc(OCC2CO2)cc1 (configuration not stated)
N

Recorded test call requested for CN(C(=O)c1cccs1)C(=S)N1CCN(c2ccccc2)CC1
N

Recorded test call requested for CC(C)OC(=O)c1ccccc1C(=C1C=C(Br)C(=O)C(Br)=C1)c1cc(Br)c(O)c(Br)c1
Y

Recorded test call requested for CCCCCCC(=O)OCCN(CCOC(=O)CCCCCC)C(=O)C(C)OC(=O)CCCCCC (configuration not stated)
N

Recorded test call requested for O=C1OC2=C(CCc3nc(-c4ccccc4)sc32)C(N(c2ccccc2)c2ccccc2)C1(Cl)Cl (configuration not stated)
N

Recorded test call requested for S=C(N/N=C/c1ccco1)NC12CC3CC(CC(C3)C1)C2
N

Recorded test call requested for O=[N+]([O-])c1cc(C(F)(F)F)cc([N+](=O)[O-])c1CCl
Y
